Target: Recombinant wild type LRRK2 protein (Homo sapiens (Human), UniProt Q5S007)
Sequence (Q5S007 whole entry): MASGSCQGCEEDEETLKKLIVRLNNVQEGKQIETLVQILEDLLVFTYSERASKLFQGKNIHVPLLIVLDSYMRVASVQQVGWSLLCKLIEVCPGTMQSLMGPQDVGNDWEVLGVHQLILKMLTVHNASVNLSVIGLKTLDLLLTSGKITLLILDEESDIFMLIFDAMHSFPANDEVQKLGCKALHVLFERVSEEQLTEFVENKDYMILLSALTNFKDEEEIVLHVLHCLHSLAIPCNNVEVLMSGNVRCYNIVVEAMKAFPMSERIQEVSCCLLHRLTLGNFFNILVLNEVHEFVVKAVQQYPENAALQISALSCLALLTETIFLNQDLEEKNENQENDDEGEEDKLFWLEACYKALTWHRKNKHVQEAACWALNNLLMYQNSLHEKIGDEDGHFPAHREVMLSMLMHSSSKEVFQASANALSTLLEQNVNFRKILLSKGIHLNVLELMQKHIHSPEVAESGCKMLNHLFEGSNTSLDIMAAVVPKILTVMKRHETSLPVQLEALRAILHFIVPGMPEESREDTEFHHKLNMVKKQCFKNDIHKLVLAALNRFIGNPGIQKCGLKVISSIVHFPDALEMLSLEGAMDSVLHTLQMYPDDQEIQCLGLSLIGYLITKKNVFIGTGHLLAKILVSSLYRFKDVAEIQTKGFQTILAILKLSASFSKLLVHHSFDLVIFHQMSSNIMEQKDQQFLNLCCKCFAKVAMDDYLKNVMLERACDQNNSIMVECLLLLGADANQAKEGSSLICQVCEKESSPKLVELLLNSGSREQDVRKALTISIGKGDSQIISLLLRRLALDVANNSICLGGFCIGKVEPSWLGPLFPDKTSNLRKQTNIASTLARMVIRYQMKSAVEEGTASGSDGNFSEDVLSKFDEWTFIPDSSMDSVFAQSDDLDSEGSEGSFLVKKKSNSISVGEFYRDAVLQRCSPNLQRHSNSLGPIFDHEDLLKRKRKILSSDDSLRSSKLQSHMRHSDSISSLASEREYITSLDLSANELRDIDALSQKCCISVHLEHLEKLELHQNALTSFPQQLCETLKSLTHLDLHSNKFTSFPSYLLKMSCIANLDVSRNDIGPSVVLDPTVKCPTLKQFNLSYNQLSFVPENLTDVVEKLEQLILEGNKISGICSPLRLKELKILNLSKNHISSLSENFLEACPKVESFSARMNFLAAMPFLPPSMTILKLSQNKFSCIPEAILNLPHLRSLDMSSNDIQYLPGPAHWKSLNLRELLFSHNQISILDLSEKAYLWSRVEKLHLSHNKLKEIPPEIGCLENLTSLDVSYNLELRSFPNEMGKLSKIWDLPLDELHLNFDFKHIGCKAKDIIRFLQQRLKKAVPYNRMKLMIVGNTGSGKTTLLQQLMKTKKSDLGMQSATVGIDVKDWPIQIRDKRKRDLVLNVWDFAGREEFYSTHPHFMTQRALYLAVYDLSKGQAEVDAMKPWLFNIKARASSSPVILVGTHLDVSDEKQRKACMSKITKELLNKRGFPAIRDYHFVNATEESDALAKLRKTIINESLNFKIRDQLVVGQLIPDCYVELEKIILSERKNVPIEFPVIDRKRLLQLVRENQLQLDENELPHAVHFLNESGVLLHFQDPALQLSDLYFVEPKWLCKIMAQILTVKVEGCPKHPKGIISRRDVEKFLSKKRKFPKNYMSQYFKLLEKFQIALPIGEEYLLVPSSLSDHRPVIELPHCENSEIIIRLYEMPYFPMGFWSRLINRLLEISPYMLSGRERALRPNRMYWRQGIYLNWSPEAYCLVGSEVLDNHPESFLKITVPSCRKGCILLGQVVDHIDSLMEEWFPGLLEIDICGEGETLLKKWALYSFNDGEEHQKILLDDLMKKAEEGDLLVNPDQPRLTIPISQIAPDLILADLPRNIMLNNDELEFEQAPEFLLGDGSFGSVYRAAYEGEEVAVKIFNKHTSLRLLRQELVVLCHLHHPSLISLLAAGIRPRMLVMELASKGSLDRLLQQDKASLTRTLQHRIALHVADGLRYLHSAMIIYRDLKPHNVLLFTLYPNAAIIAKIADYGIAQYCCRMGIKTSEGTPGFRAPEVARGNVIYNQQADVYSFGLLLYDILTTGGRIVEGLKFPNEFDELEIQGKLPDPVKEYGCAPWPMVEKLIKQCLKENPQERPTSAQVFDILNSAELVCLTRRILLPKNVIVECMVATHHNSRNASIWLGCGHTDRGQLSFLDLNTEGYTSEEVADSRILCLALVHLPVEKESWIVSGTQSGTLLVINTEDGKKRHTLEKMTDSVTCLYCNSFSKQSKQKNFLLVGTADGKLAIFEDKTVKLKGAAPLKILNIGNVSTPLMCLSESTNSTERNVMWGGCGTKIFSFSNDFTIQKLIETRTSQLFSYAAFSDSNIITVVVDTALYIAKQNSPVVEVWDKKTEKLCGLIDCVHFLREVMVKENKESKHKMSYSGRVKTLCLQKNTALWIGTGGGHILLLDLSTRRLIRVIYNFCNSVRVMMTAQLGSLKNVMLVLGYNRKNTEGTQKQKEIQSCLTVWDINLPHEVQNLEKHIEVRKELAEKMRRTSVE
Assay: LRRK2 kinase activity, LanthaScreen TR-FRET assay (wild type)
Conditions: LRRKtide 400 nM, 25 μM ATP, 60 min; read-out: LRRK2 WT IC50
pIC50: −log10 of the molar value.
Recorded pIC50, one value per entry.

Sample records with pIC50:
>  <Chemical String>
N#Cc1ccnc(C(=O)Nc2ccc3[nH]nc(-c4ccoc4)c3c2)c1F

>  <Study System>
Recombinant wild type LRRK2 protein (Homo sapiens (Human), UniProt Q5S007)

>  <pIC50>
6.00 to 7.00

$$$$
>  <Chemical String>
Cc1cc(C#N)cnc1C(=O)Nc1ccc2[nH]nc(-c3ccc4ocnc4c3)c2c1

>  <Study System>
Recombinant wild type LRRK2 protein (Homo sapiens (Human), UniProt Q5S007)

>  <pIC50>
6.00 to 7.00

$$$$
>  <Chemical String>
Cc1c(C(=O)Nc2ccc3[nH]nc(-c4ccnc(N5CCOCC5)c4)c3c2)nc(Cl)c(C#N)c1C

>  <Study System>
Recombinant wild type LRRK2 protein (Homo sapiens (Human), UniProt Q5S007)

>  <pIC50>
> 7.00

$$$$
>  <Chemical String>
Cc1cccc(-c2n[nH]c3ccc(NC(=O)c4ncc(C#N)cc4C)cc23)c1

>  <Study System>
Recombinant wild type LRRK2 protein (Homo sapiens (Human), UniProt Q5S007)

>  <pIC50>
6.00 to 7.00

$$$$
>  <Chemical String>
Cc1c(C#N)nn(C)c1C(=O)Nc1ccc2[nH]nc(-c3cnn(C(F)F)c3)c2c1

>  <Study System>
Recombinant wild type LRRK2 protein (Homo sapiens (Human), UniProt Q5S007)

>  <pIC50>
> 7.00

$$$$

Query string: What does the record list as pIC50 for N#Cc1cnc(C(=O)Nc2ccc3[nH]nc(-c4ccoc4)c3c2)c(F)c1 ?
Result string: > 7.00

Query string: Ok, now Cc1cc(C#N)cnc1C(=O)Nc1ccc2[nH]nc(-c3ccc(=O)n(C)c3)c2c1
Result string: 6.00 to 7.00

###

Measured IC50, listed per entry.
Target: Recombinant wild type LRRK2 protein (Homo sapiens (Human), UniProt Q5S007)
Assay: LRRK2 kinase activity, LanthaScreen TR-FRET assay (wild type)
Settings: LRRKtide 400 nM, 25 μM ATP, 60 min; read-out: LRRK2 WT IC50

The cases that follow already have their IC50 on record.
>  <Chemical String>
C=C(C)c1n[nH]c2ccc(NC(=O)c3ncc(C#N)c(C)c3C)cc12

>  <Endpoint Value>
0.1 to 1 µM

$$$$
>  <Chemical String>
N#Cc1ccc(C(=O)Nc2ccc3[nH]nc(-c4ccoc4)c3c2)cn1

>  <Endpoint Value>
0.1 to 1 µM

$$$$
>  <Chemical String>
C=C(C)c1cc(C#N)cnc1C(=O)Nc1ccc2[nH]nc(C)c2c1

>  <Endpoint Value>
1 to 10 µM

$$$$
>  <Chemical String>
Cc1c(C(=O)Nc2ccc3[nH]nc(S(C)(=O)=O)c3c2)nc(Cl)c(C#N)c1C

>  <Endpoint Value>
0.1 to 1 µM

$$$$
>  <Chemical String>
CCc1n[nH]c2ccc(NC(=O)c3ncc(C#N)c(C(F)(F)F)c3C)cc12

>  <Endpoint Value>
1 to 10 µM

$$$$

Query string: Recorded IC50 for Cc1cc(C#N)cnc1C(=O)Nc1ccc2[nH]nc(-c3cnn(C(F)F)c3)c2c1 , please?
Result string: 0.1 to 1 µM
